Measurement Target: wild-type Pseudomonas sp. strain CBS3 4-HB-CoA thioesterase (Pseudomonas sp., UniProt P56653)
Sequence (P56653 whole entry): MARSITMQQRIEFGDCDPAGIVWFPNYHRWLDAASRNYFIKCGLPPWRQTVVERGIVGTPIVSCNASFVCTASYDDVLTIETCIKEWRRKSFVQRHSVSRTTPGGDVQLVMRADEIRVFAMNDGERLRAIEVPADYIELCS
Assay Text: Steady-state multiple-turnover time courses
Format: biochemical
Quantity: Kd (µM)
Value expressed in µM; do not type the unit.

Query block: Check the records and state Kd for "CC(C)(COP(=O)(O)OP(=O)(O)OC[C@H]1O[C@@H](n2cnc3c(N)ncnc32)[C@H](O)[C@@H]1OP(=O)(O)O)[C@@H](O)C(=O)NCCC(=O)NCCS"
Result block: 300
